Catalogue of IC50 values
Target: ITK (Homo sapiens, UniProt Q08881)
Sequence (Q08881 whole entry): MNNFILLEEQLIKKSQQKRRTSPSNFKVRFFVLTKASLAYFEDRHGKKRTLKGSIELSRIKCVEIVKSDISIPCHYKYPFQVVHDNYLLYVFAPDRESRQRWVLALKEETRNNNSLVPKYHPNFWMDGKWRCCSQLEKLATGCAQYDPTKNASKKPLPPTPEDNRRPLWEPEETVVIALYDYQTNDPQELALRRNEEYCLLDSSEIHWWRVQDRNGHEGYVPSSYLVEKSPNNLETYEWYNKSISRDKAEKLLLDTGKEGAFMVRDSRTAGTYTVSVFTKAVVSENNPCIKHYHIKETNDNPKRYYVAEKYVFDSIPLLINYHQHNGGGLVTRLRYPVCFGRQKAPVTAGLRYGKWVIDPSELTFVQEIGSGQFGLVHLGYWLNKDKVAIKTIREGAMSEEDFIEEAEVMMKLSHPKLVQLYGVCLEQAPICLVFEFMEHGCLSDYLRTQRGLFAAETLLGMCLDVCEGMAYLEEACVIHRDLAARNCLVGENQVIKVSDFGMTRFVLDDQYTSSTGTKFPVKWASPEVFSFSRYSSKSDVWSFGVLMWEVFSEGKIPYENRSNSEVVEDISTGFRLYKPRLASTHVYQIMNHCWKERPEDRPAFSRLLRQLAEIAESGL
Assay: Inhibition of a panel of kinases, in vitro HotSpot kinase assay: ITK
Assay type: biochemical
Conditions: E compounds, Table 17

Example compounds with recorded IC50:
compound	test-target	IC50
C=CC(=O)N[C@@H]1CCCN(c2cnc(C(N)=O)c(Nc3ccc(C4CCN(C5CC5)CC4)cc3)n2)[C@@H]1C [Example E-93]	ITK (Homo sapiens, UniProt Q08881)	10 to 100 nM
Cc1cc(Nc2nc(N3CC[C@H](O)[C@@H](N4CCC[C@@H](Nc5cc(Cl)cc(C(F)(F)F)c5)C4=O)C3)nnc2C(N)=O)sn1 [Example E-10]	ITK (Homo sapiens, UniProt Q08881)	≤ 10 nM
C=CC(=O)N1CCC[C@@H](Nc2nnc(C(N)=O)c(Nc3cccc(C(=O)N4CCOCC4)c3)n2)C1 [Example E-85]	ITK (Homo sapiens, UniProt Q08881)	10 to 100 nM
C=CC(=O)N1CCC[C@@H](Nc2nnc(C(N)=O)c(Nc3ccc(S(F)(F)(F)(F)F)cc3)n2)C1 [Example E-78]	ITK (Homo sapiens, UniProt Q08881)	10 to 100 nM
C=CC(=O)N[C@H]1CCCN(c2nnc(C(N)=O)c(Nc3ccc(C(C)C)cc3)n2)C1 [Example E-22]	ITK (Homo sapiens, UniProt Q08881)	100 to 1000 nM

Quickly give me recorded IC50 for C=CC(=O)N1CC[C@@H](N(C)c2cnc(C(N)=O)c(Nc3cccc(-n4nccn4)c3)n2)C1 [Example E-113] 10 to 100 nM

Quickly give me recorded IC50 for C=CC(=O)N[C@@H]1CCCN(c2cnc(C(N)=O)c(Nc3cc(C)ns3)n2)[C@@H]1C [Example E-97] 10 to 100 nM

====

Catalogue of IC50 values
Target: EGFR (Homo sapiens, UniProt P00533)
Sequence (P00533 25-1210): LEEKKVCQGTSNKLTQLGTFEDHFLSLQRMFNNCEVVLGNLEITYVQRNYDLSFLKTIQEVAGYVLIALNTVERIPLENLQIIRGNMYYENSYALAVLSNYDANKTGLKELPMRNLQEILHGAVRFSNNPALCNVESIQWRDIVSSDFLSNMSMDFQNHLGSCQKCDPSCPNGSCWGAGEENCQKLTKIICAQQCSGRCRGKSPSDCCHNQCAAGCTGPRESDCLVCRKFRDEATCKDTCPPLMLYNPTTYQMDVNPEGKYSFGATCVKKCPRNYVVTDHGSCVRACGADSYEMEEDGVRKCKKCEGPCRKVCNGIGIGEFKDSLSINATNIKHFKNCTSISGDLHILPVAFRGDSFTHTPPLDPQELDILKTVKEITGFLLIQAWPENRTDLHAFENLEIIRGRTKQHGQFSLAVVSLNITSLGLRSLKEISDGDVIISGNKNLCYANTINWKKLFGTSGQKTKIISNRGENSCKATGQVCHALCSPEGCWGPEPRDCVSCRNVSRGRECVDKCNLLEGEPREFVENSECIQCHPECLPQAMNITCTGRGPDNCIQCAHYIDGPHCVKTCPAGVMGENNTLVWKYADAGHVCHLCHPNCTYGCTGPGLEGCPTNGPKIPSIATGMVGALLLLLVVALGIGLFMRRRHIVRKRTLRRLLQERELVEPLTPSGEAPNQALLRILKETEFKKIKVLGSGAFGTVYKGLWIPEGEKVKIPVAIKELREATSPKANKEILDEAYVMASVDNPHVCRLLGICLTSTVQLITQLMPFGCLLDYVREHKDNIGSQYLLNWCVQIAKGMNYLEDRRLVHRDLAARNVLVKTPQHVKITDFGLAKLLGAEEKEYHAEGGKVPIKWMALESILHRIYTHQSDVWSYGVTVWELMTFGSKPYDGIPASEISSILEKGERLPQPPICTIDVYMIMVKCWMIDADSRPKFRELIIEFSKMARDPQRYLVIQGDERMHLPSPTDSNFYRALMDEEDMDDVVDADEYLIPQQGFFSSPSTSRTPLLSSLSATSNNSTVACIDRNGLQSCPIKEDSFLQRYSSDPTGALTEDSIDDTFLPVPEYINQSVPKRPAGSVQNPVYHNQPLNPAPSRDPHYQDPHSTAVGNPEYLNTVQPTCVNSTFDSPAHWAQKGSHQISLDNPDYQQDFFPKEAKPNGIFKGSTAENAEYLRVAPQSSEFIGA
Test: Inhibition of a panel of kinases, in vitro HotSpot kinase assay: EGFR
Format: biochemical
Conditions: Table 13, A compounds; 1 μM ATP

Example compounds with recorded IC50:
compound	test-target	attribute-measured	result
C[C@@H]1[C@H](NC(=O)c2ccc(C3CC3)cc2F)CCCN1c1cnc(C(N)=O)c(Nc2ccc(C(=O)N3CCN(C)CC3)cc2)n1 [Example A-122]	EGFR (Homo sapiens, UniProt P00533)	IC50	100 to 1000 nM
Cn1cc(Nc2nc(N3C[C@H](NC(=O)c4ccc(C5CC5)cc4)CC(F)(F)C3)cnc2C(N)=O)cn1 [Example A-188]	EGFR (Homo sapiens, UniProt P00533)	IC50	1000 to 10000 nM

Quickly give me recorded IC50 for C[C@@H]1[C@H](NC(=O)c2ccc(C3CC3)cc2)CCCN1c1cnc(C(N)=O)c(Nc2cnn(C)c2)n1 [Example A-169] 1000 to 10000 nM

Quickly give me recorded IC50 for C[C@@H]1[C@H](NC(=O)c2ccc(C3CC3)cc2F)CCCN1c1cnc(C(N)=O)c(Nc2nc3c(s2)CN(C)CC3)n1 [Example A-108] > 10000 nM

Quickly give me recorded IC50 for CN(C)C(=O)N[C@@H]1CCCN(c2cnc(C(N)=O)c(Nc3ccc(C4(C)CCN(C5CCCC5)CC4)cc3)n2)[C@@H]1CO [Example A-101] 100 to 1000 nM

Quickly give me recorded IC50 for CC(C)N1CCN(c2ccc(Nc3nc(N4CCC[C@@H](NC(=O)c5ccc(C6CC6)cc5F)[C@H]4C)cnc3C(N)=O)cc2)CC1 [Example A-149] 100 to 1000 nM
